Target: T1, recombinant human PVRIG-human IgG1 Fc fusion protein (human)
T1 construct: no linker is told; also called human PVRIG-Fc fusion protein
T1 sequence (chain, as listed by the source limits assumed): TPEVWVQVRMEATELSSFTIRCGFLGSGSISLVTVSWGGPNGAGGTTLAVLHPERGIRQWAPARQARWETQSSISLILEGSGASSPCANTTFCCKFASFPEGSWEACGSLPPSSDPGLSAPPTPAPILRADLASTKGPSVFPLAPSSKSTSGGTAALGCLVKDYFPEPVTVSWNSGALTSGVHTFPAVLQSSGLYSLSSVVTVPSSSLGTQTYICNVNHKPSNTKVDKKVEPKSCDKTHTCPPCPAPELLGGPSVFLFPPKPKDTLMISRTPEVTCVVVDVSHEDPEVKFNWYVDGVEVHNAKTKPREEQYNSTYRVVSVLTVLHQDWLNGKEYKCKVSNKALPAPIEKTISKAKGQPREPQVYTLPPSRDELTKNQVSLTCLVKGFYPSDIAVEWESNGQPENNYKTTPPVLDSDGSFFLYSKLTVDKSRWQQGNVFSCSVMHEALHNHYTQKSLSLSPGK
Assay: SPR (Biacore), human PVRIG-human IgG1 Fc on chip, antibody in flow, 1:1 model
MEASURED METRIC: koff (s⁻¹)
Provide only the numeric value, understood in s⁻¹.

BINDER	MEASURED METRIC	ENDPOINT RESULT
Antibody 1 (antibody, V domains shown, Murine monoclonal antibody from hybridoma ascites, purified on Protein G; also called murine antibody Antibody 1) VH: QVQLQQSGAELMKPGASVKISCKATGYTFSTFAIDWIKQRPGPGLAWIGEILPGINNTNYNEKFKGKATFTADTSSNTAYMHLSSLTSEDSAVYYCSTYWFAYWGQGTLVTVSA VL: DIVMTQSPSSLSVSAGEKVTMTCKSSQSLLNSGNQKNYLAWYQQKPGQPPKLLMYGASTRESGVPDRFTGSGSGTDFTLTISSVQAEDLAVYYCQNAHSYPPTFGAGTKLELK	koff	4.19e-05

// recorded koff for Antibody 3 (antibody, V domains shown, Murine monoclonal antibody from hybridoma ascites; also called murine antibody Antibody 3) VH: EVQLQQSGPELVKPGASMKISCKASGYSFTAYTMNWVKQSHGKNLEWIGLINPYNGGTSYNQKFKGKATLTGDKSSSTAYMELLSVTSEDSAVYFCAREGNYYGSRGDFDYWGQGTTLTVSS VL: DILLTQSPAILSVSPGERVSFSCRASQTIVTNILWYQQRTNGSPRLLIRYASESISGIPSRFSGSGSGTDFTLSINSVESEDIAHYYCQQSHSWPFTFGSGTKLEIK : 8.82e-05
